System: MS2 coat protein
Assay: apparent Kd, MS2 coat protein; higher = weaker binding; RNA-MaP array; FMN 200 µM where present
Settings: ligand present: flavin mononucleotide; designed as: OFF switch for flavin mononucleotide
Catalogue of sequences with associated apparent Kd
I only need the number, in nM, no unit after it.

// known answers, use as guide
AAUAUAGAGCUGGAAUAAAACCUCACAUGAGGAUCACCCAUGUAGGAUAUCAGCACGAUAAGUGCUGAGAAGGACAUCCAGCUC | 17.9
GCGAGUACGAGAGGAUAUUGACAUGAGGAUCACCCAUGUAUUUGGGAGUGUUCACUGAAUUCUUACGAGAAGGCUCGUACACGC | 252
AAAUUUUGUCAAGGAUAUGUAUAAAAGAGAAGAAAACAUGAGGAUCACCCAUGUAUAUGGUGGGAACAGAAGGUGAUUAAGUAA | 271
GGGUAGUGAGGAUAUCGUUGUUAGGAGGAGUAGGUAGGAGGCGAGAAGGCACAUGAGGAUCACCCAUGUAUGGA | 33.3

Exercise: Which measured apparent Kd value corresponds to CUAUUGGCAGGAUAUGCUUUUUUUGACAUGAGGAUCACCCAUGUGAUGCAUUUUGGGUUUGCAGAAGGGCCUGAGU ?
Solution: 75.1

Exercise: Which measured apparent Kd value corresponds to AAAAAGGCAGGAUAUACAAAACAGGGAAACCUGAAAAGGAAACAUGAGGAUCACCCAUGUAGAAGGGCCAAGAA ?
Solution: 35.3

Exercise: Which measured apparent Kd value corresponds to AGUGCGUAUGUGAGGAUAUGCUGGUCCUUGGAUCGGCAGAAGGCACAUGAGGAUCACCCAUGUGGUGUCGUACC ?
Solution: 34

Exercise: Which measured apparent Kd value corresponds to CCCUCACAUGAGGAUCACCCAUGUCAGGAUAUCCAGCCCUACUAUAAAGCGUCUGGCGGGAGAAGGGACAGGAU ?
Solution: 28.5

Exercise: Which measured apparent Kd value corresponds to CUGUGAUGGAUCCAGAAUUACAACAUGAGGAUCACCCAUGUGCAGGAUAUCGGGUUGAUAGGCGCCGAGAAGGGUAUGAUCACG ?
Solution: 140

Exercise: Which measured apparent Kd value corresponds to GGUGCUCAAAGAGUACCAAUACGAACAUGAGGAUCACCCAUGUAGGAUAUGCUACUCAAAGAGUAGCAGAAGGACAUGUGCCUA ?
Solution: 116

* * *

Test system: MS2 coat protein
Experiment: apparent Kd, MS2 coat protein; higher = weaker binding; RNA-MaP array; FMN 200 µM where present
Conditions: designed as: ON switch for flavin mononucleotide; no ligand
Mark yes for reported apparent Kd of 200 nM or greater; mark no for anything smaller.

Worked examples follow.
GGGUACAUCGGAGGAUAUCAUGUAAAUACAUGAGGAUCACCCAUGUCGAUCGAGACAUCGGAGAUUGAGAAGGCCGAUGUACCG | no
GCCAUCGCAUGAGGAUAUGGCACCGUUUCGGUGCCAGAAGGCAUGUCGAAUGACAUGAGGAUCACCCAUGUAGUUAAGAUGGCA | yes
GUAGCUUCAUUUAUACAUGAGGAUCACCCAUGUUACAUGGGUAAGGAUAUUGAUGUUAUGAUUAUCAAGAAGGUACUAUGCUAC | yes
GCAGCGCUUGACAUGAGGAUCACCCAUGUUAGAUUGUUAAGUCAGGAUAUAGUCUAGAAACUAGACUAGAAGGGAUUUGCUGCU | no
GUAGCAUAAUCAGGAUAUUCAGCGAAUAGAUUGACAUGAGGAUCACCCAUGUGGCGAAAGCCUAGGGAGAAGGGAUAAUGCUAC | yes
GUAGCUAUUAAAGGAUAUUCAUACCGGAAACGGACAUGAGGAUCACCCAUGUGGCGAAAGCCUUGGGAGAAGGUUAUUAGCUAC | yes
CUUGUACUCGGAGGAUAUCGAUAUCAAACAUGAGGAUCACCCAUGUUGAGGAUCACACAUGUAAAUGAGAAGGCUGACGUUGCU | no
GCGGAACAUGAGGAUCACCCAUGUAUCCCAAAUAUGGACUCACAGGAUAUCCCGAGUUUCCAGUGGGAGAAGGGUGACUCCAGA | no
GUUGGUGUAGAAGGAUAUUGGUGAGGCGUCUUGUACAUGAGGAUCACCCAUGUCAUUCUGCACGCCGAGAAGGUCUGCAAUUGG | no
GUAGCUAUCGGAGGAUAUUCAUACCGGAAACGGACAUGAGGAUCACCCAUGUGGCGAAAGCAUUGGGAGAAGGCCGAUAGCUAC | yes

Exercise: Test whether the sequence GUAUGAGCGAUAGGAUAUACUGAGAUUGAAUGGGUAGAAGGAUCUCUUGUGAGGAAGACAUGAGGAUCACCCAUGUCACGGGCC records apparent Kd of 200 nM or higher.
Solution: no

Exercise: Test whether the sequence CGUAACUACAUAGGAUAUUGAUACAUGAGGAUCACCCAUGUUAUAGGGAUUAGUUUAAUAUUAAGCAAGAAGGAUGAAGUUACG records apparent Kd of 200 nM or higher.
Solution: no

Exercise: Test whether the sequence GGACGUCACAUCUACAUGAGGAUCACCCAUGUCGAAAGACAUGAGGAUAUGCAUCCUAAUUGGAUGCAGAAGGCAUGGACGUCC records apparent Kd of 200 nM or higher.
Solution: yes

* * *

Tested on: MS2 coat protein
Assay: apparent Kd, MS2 coat protein; higher = weaker binding; RNA-MaP array; FMN 200 µM where present
Settings: designed as: OFF switch for flavin mononucleotide; no ligand
parameter: apparent Kd

// known answers, use as guide
UCAGGCUUCGAGAAGGACAUGAGGAUCACCCAUGUGCGUGUGAAGCAGCCGUGAGGCUGCAUCAUGUAGGAUAUCGGAGUCUGG | 74 nM
GAUUACAUGAGGAUCACCCAUGUACAGGUGAUUCUCGGUACGAGAAGGGCGGAGGGUCACCACACGCAGGAUAUCGAGCAAAGG | 231 nM
CACUUGGCAGGAUAUGCAAUUUUAGACAUGAGGAUCACCCAUGUGAUCAUUCCAUAUUAUGCAGAAGGGCCUAAAC | 199 nM

Exercise: Which measured apparent Kd value corresponds to GACUUGUCAGGAUAUCUUACAUUUGCAUCGUAGUUACCAUUGGAGAAGGGACAUGAGGAUCACCCAUGUUUGGC ?
Solution: 25.6 nM

* * *

System: MS2 coat protein
Experiment: apparent Kd, MS2 coat protein; higher = weaker binding; RNA-MaP array; FMN 200 µM where present
Settings: designed as: OFF switch for flavin mononucleotide; no ligand
parameter: apparent Kd (nM)
I only need the number, in nM, no unit after it.

// known answers, use as guide
GCUCUGUUAGGAUAUUUCGGCAUAGGUAUAACUUAAGCGUGAGAGAAGGAACAUGAGGAUCACCCAUGUUAAUC | 19.9
ACAUGAGGAUCACCCAUGUAUUUGUAGGAUAUACUCUAUUGUUUAUUACUCUAGUUAAAAUGUUUGUAGAAGGACAUUACAUGA | 6.81
UCCAUCCCUGUGAGGAUAUCGUCCGUUUUUUGUUCCGAGAAGGCACAUGAGGAUCACCCAUGUUUUUUGUUUUU | 29.4

Now, please, on to the next sequence.
Exercise: Enter reported apparent Kd observed with MS2 coat protein for UUACUAUCACAGAAGGCUAGAUAGUAUAUAGAUGGAGGAUAUGUGACAUGAGGAUCACCCAUGUUUCACCGACAUGAGGAUCAC
Solution: 17.4

* * *

System: MS2 coat protein
Test: apparent Kd, MS2 coat protein; higher = weaker binding; RNA-MaP array
Details: designed as: ON switch for theophylline; no ligand
Mark met for reported apparent Kd of 100 nM or greater; mark not met for anything smaller.

Worked examples follow.
GAAUCUACAAACGAUACCAGAUCCGGCUGCCACAUGAGGAUCACCCAUGUCUAGCGACUCAUCCCUUGGCAGCGUGUGCAUCCCG | met
AUGAAGCUAAGAGAUACCAGUGACCACAGAUACAUGAGGAUCACCCAUGUCUCAAAUUGUCACCCUUGGCAGCUCACUAUCGAAG | not met
UACCGGUGACUCGAUACCAGUCCUCUAAAAUACAUGAGGAUCACCCAUGUAACCUUCCCAGACCCUUGGCAGCGACACAUGGAUA | met
AUCUACGUGGGUGAUACCAGCUGGUUAGUACACAUGAGGAUCACCCAUGUGCAGGCAGGCAGCCCUUGGCAGCACCGCAGUGGCU | met
UUGAACAUGAGGAUCACCCAUGUGGAUGAUACCAGCUAAAACAUAAGCCCUUGGCAGCAUUAAAAUGAAAUAUCGAAAAGGAAAG | met

Next sequence, please.
Exercise: Test whether the sequence AUGUGCAAUACGGAUACCAGCCCGUGUAGAUACAUGAGGAUCACCCAUGUCAAUGUAAAUGGCCCUUGGCAGCCGUUUGGGAGGC records apparent Kd of 100 nM or higher.
Solution: not met
